Origin of measurements: ChEMBL document CHEMBL1201862

- Tested on: HOP-92
- test_method_notes: NCI tumour cell line growth inhibition, 48 h
Active and inactive are the calls of the source. Rule as the data show it: active = GI50 up to about 1.1 µM and inactive = higher.
Hi! Could you answer with just one of these? yes (active), no (inactive)

* CCN1CCC(O)(/C=C/c2ccc(Cl)c(Cl)c2)C(C(=O)/C=C/c2ccc(Cl)c(Cl)c2)C1 (stereo unspecified) | yes

Input: What did the test return for "CCOC(=O)/C(=N/Nc1ccc(Cl)cc1)N1C(=S)N(C)N=C(C)C=C1S" ?
Output: no

Input: Also "CCC(=O)NCCc1c[nH]c2ccc(OC)cc12" , if possible.
Output: no

Input: Also CCOC(=O)c1cc(C2CCN(CC(C)CC)C2=S)c(-c2cc(C)no2)[nH]1 (stereo unspecified) , if possible.
Output: no

Input: Also "CCCc1ccc(/N=C\c2cc(OC)c(OC)c(OC)c2)cc1" , if possible.
Output: no

Input: Also "CCNC(=O)NNc1ncnc2c1c(-c1ccc(Cl)cc1)cn2-c1ccc(C)cc1" , if possible.
Output: no

Input: Also "NNC(=S)N/N=C(/C(=O)Nc1ccc([N+](=O)[O-])cc1)c1nc2ccc([N+](=O)[O-])cc2nc1O" , if possible.
Output: no

Input: Also "CSc1nnc(CCC(=O)Nc2c(C)cccc2C)o1" , if possible.
Output: no

Input: Also CCNC(=O)OCC1C2=C(C(=O)C(C)=C(N)C2=O)N2CC3C(N3C)C12OC (stereo unspecified) , if possible.
Output: no

Input: Also C=C1C(=O)OC2C1C(OC(=O)/C(C)=C\C)CC1(CO1)C1C(O)C=C(C)C21O (stereo unspecified) , if possible.
Output: no

Input: Also "Cc1cc(C)n(-c2nc(-n3nc(C)cc3C)nc(-n3nc(C)cc3C)n2)n1" , if possible.
Output: no

Input: Also "CCN(CC)c1ccc(/C=C/C=C2C(=O)NC(=S)NC2=O)cc1" , if possible.
Output: no

Input: Also "Cc1c2ccnc(-c3ccccc3)c2cc2c1[nH]c1ccccc12" , if possible.
Output: no

Input: Also "COc1ccc2c(c1)/C(=C/CCN(C)C)c1ccccc1S2" , if possible.
Output: no

----------
- Tested on: SF-539
- test_method_notes: NCI tumour cell line growth inhibition, 48 h
Calls of active or inactive are those of the source. No stated cut-off is given here; in the data, active = GI50 up to about 1.1 µM and inactive = higher.
Hi! Could you answer with just one of these? active, inactive

The following molecules have reported results that may help.
- CCCCCCCCC[n+]1cccc(C2C(C(=O)OCC)=C(C)NC(C)=C2C(=O)OCC)c1: inactive
- CC1C(O)C2(Oc3cc4c(c5c3[C@@H](CC5O)[C@H]2C)CCC2Cc3nc5c(nc3C[C@@]42C)CC2CCC3C4=C[C@H]6O[C@@]7(O[C@@](C)(CO)C[C@@H]7O)C(C)[C@@]6(O)[C@]4(C)[C@@H](O)CC3[C@]2(C)C5)OC1(C)C (some centres undefined): active
- CCCCCCCCNC(=O)SCCCC: inactive
- CSC(SC)(C(=O)O)c1cc(-c2c(Cl)cccc2Cl)no1: inactive
- CCC(=O)NCCc1c[nH]c2ccc(OC)cc12: inactive

Input: What did the test return for c1ccc2c(c1)cc1n2CC2CN=NC12 (centres undefined) ?
Output: inactive

Input: Also "Cc1ccc(SSCCCS(=O)O)cc1" , if possible.
Output: inactive

Input: Also C=CCC1(O)c2ccccc2C(=O)c2c(O)ccc(O)c21 (centres undefined) , if possible.
Output: inactive

Input: Also C[C@]12C(=O)C=CCC1=CC[C@@H]1[C@@H]2[C@H]2CC3(O)C(=O)O[C@@]4(C)[C@H]5C[C@@]6(C)[C@@H]7[C@@]2(O)[C@]1(OC[C@H]6C(=O)O5)O[C@]734 (some centres undefined) , if possible.
Output: inactive
